Measured values drawn from ChEMBL document CHEMBL1201862 for this set.

Reported EC50 by item:
assay: inhibitors of firefly luciferase expression or activity, dose response, H4 neuroglioma cells, luminescence (AID 1990); assay type: functional, cell-based
Activity calls are given as the source filed them.
measured quantity: EC50

[
  {
    "molecule": "Cc1cc(N2CCN(C)CC2)ccc1NC(=O)c1cccc(S(=O)(=O)N2CCc3ccccc3C2)c1",
    "measured quantity": "EC50",
    "value reported": "9.2 µM (active)"
  },
  {
    "molecule": "COc1ccc(NC(=O)C(=O)NCC(c2ccco2)N2CCc3ccccc32)cc1 (stereo not given)",
    "measured quantity": "EC50",
    "value reported": "104 µM (active)"
  },
  {
    "molecule": "Cc1cccc(OC2CCN(Cc3nc(CC4CC4)no3)CC2)c1",
    "measured quantity": "EC50",
    "value reported": "> 120 µM (not active)"
  },
  {
    "molecule": "COc1ccc(C2C(C#N)=C(N)N(c3ccccc3)C3=C2C(=O)CCC3)cc1Cn1cc([N+](=O)[O-])cn1 (stereo not given)",
    "measured quantity": "EC50",
    "value reported": "13.2 µM (active)"
  },
  {
    "molecule": "OCC/N=C1\\CCCc2c1[nH]c1ccc(Br)cc21",
    "measured quantity": "EC50",
    "value reported": "< 0.1 µM (active)"
  }
]

---

molecular target: Glucose-6-phosphate 1-dehydrogenase (Homo sapiens, UniProt P11413); assay: human G6PD enzyme inhibitors, dose response, selectivity assay for P. falciparum G6PD inhibitor project, biochemical, fluorescence (AID 504792); assay type: functional
Sequence (P11413 whole entry): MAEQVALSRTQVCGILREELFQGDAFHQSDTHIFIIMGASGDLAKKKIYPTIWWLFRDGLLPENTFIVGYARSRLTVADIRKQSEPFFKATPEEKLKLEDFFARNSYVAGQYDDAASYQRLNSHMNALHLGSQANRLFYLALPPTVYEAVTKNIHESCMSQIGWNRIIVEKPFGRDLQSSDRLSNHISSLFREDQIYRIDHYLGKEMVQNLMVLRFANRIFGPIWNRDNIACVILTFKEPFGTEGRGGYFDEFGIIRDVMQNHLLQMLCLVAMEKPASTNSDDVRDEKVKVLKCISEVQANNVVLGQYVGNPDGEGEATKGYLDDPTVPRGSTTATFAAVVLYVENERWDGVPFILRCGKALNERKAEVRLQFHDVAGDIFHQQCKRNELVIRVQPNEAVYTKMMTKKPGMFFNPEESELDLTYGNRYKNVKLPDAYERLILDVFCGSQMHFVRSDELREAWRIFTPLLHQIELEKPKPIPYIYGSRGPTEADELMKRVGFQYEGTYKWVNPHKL
Calls of active or inactive are those of the source.
Outcome codes: y for active, n for inactive

[
  {
    "mol smiles": "O=S(=O)(Nc1ccc(Cl)cc1)c1ccc(N2CCOCC2)c(NC(=S)NCCN2CCOCC2)c1",
    "answer label": "n"
  },
  {
    "mol smiles": "O=c1c2ccccc2sn1-c1ccccc1F",
    "answer label": "y"
  },
  {
    "mol smiles": "C(=N\\Nc1nc2ccccc2[nH]1)/c1ccccn1",
    "answer label": "n"
  },
  {
    "mol smiles": "Cc1cc(C)nc(/N=C(\\N)NCCc2ccccc2)n1",
    "answer label": "n"
  },
  {
    "mol smiles": "CCN(CC)C(=O)c1c(C)[nH]c(=S)c(C#N)c1-c1ccco1",
    "answer label": "n"
  }
]

---

target: RNA-binding protein pos-1 (Caenorhabditis elegans, UniProt G5EF15); assay: inhibitors of POS-1/mex-3 RNA binding, dose response, biochemical, fluorescence polarization (AID 1964);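 also: purified POS-1 fused to maltose binding protein made in E. coli; potency of compounds blocking POS-1 binding to fluorescent RNA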
Sequence (G5EF15 whole entry, the tested form may be a part): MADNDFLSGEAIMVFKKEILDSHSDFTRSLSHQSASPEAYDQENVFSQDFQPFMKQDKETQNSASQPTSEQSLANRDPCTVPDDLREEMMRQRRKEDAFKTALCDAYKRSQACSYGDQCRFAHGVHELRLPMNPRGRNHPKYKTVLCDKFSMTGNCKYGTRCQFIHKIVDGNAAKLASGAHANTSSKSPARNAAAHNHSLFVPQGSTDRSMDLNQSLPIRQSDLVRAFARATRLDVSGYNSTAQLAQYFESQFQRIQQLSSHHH
The source made the active and inactive calls.
measured quantity: EC50

[
  {
    "mol smiles": "COc1c(O)cccc1[C@H](O)C1CCN(CCc2ccc(F)cc2)CC1",
    "value reported": "14.4 µM (active)"
  },
  {
    "mol smiles": "CN1C(=O)C(=Cc2cn(CC(=O)N3CCCC3)c3ccccc23)C(=O)N(C)C1=O",
    "value reported": "> 300 µM (not active)"
  },
  {
    "mol smiles": "CCCNc1c(F)c(F)c2c(C)c3ccccc3nc2c1F",
    "value reported": "> 300 µM (inconclusive)"
  },
  {
    "mol smiles": "Cc1ccc(C(=O)N/C(=C\\c2ccc(-c3ccccc3[N+](=O)[O-])o2)C(=O)NCCCN(C)C)cc1",
    "value reported": "> 300 µM (inconclusive)"
  },
  {
    "mol smiles": "C(=N\\Nc1nc2ccccc2[nH]1)/c1ccccn1",
    "value reported": "72.9 µM (active)"
  }
]
